So I've got a bunch of compounds here, and I need their normalized growth values.
# MEASUREMENT PROTOCOL: chemical genetic growth profiling, strain panel (AID 1159580);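 further: tested at 20 µM; growth read once vehicle control cultures reached saturation at 30 °C; 1 = growth at the plate median or of vehicle wells; lower values mean less growth of the strain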
# MEASUREMENT CONDITIONS: S. cerevisiae deletion strains, growth OD, locus YBR229C, strain ROT2, hits give low values
Screen size: about 5,500 compounds; about 2,000 (36%) were called active. Roughly 18% stayed inconclusive and do not appear here. Some of the results follow.
Give bare numbers.

Use the examples below as a reference point.
1. CCC(=O)OCC(=O)C1(OC(=O)CC)C(C)CC2C3CCC4=CC(=O)C=CC4(C)C3(Cl)C(O)CC21C (stereo not drawn) : 1.02
2. O=c1c(O)cccc2c(C3Oc4cc(O)cc(O)c4CC3O)cc(O)c(O)c12 (stereo not drawn) : 0.409
3. COC1=CC(=O)C=C(OC)C1=O : 0.956
4. O=C(NCCCCO)OCC1c2ccccc2-c2ccccc21 : 0.997
5. CCC(=O)O[C@]1(C(=O)CCl)[C@@H](C)CC2C3CCC4=CC(=O)C=C[C@]4(C)[C@@]3(F)[C@@H](O)C[C@@]21C (stereo partly drawn) : 0.986
6. O=C(O/N=C1/CCCc2[nH]c3ccccc3c21)c1ccc(Cl)cc1Cl : 0.97
7. CSc1cc(C(F)(F)F)cc(SC)c1SC : 0.975

Now for a further compound.
QUERY: Return reported normalized growth; argument: CC1(C)O[C@@H]2CC3C4C[C@H](F)C5=CC(=O)CC[C@]5(C)C4[C@@H](O)C[C@]3(C)[C@]2(C(=O)CO)O1 (stereo partly drawn)
RESULT: 1.01
